The origin of these recorded values is patent US20240247080A1.

- System: T1, human neuropeptide Y2 receptor (human, UniProt P49146 1-381)
- T1 sequence (looked up): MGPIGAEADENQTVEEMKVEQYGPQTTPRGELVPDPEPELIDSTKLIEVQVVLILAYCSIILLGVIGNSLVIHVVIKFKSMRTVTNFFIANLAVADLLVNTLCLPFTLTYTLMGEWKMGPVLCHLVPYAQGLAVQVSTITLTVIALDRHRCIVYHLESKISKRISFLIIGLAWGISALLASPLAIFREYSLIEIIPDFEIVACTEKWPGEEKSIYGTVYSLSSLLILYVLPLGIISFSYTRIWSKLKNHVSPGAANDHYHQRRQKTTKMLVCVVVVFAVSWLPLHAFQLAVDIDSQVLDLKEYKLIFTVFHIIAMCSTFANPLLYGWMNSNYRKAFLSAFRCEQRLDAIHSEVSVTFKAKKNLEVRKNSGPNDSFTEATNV
- Assay text: cell-based or functional assay
Overview of reported EC50 CreLuc hNPY2R 100% hP across a group of binders:
Result type: EC50 CreLuc hNPY2R 100% hP (nM)

1) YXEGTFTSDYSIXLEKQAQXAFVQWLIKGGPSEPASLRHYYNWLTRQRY (Aib at 2, 13, 20; K28 side chain: C20DA-gGlu-gGlu-gGlu-gGlu-gGlu-OEG-OEG; C-terminal NH2) [Compound 111]	36.8
2) YXEGTFTSDYSIXLEKQAQXAFVEYLIKGGPSSGASLRHYYNWLTRQRY (Aib at 2, 13, 20; K28 side chain: C20DA-gGlu-gGlu-gGlu-gGlu-gGlu-gGlu-eLys; C-terminal NH2) [Compound 135]	21.5
3) YXEGTFTSDYSIXLEKQAQXAFVEWLIKGGPSSGISLRHYYNWLTRQRY (Aib at 2, 13, 20; K28 side chain: C20DA-gGlu-gGlu-gGlu-gGlu-gGlu-gGlu-eLys; C-terminal NH2) [Compound 94]	40.2
4) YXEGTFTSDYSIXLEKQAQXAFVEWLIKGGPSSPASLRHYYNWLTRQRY (Aib at 2, 13, 20; K28 side chain: C20DA-gGlu-gGlu-gGlu-gGlu-gGlu-OEG-OEG; C-terminal NH2) [Compound 120]	39.2
5) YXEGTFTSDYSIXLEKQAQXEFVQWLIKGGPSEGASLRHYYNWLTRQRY (Aib at 2, 13, 20; K28 side chain: C18DA-gGlu-gGlu-gGlu-gGlu-gGlu; C-terminal NH2) [Compound 141]	35.2
6) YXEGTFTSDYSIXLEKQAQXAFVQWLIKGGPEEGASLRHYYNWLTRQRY (Aib at 2, 13, 20; K28 side chain: C20DA-gGlu-gGlu-gGlu-gGlu-gGlu-gGlu-eLys; C-terminal NH2) [Compound 89]	42.4
